AC50: recorded values
- experimental.system: Histone-lysine N-methyltransferase NSD2 (Homo sapiens, UniProt O96028)
- Sequence (O96028 whole entry): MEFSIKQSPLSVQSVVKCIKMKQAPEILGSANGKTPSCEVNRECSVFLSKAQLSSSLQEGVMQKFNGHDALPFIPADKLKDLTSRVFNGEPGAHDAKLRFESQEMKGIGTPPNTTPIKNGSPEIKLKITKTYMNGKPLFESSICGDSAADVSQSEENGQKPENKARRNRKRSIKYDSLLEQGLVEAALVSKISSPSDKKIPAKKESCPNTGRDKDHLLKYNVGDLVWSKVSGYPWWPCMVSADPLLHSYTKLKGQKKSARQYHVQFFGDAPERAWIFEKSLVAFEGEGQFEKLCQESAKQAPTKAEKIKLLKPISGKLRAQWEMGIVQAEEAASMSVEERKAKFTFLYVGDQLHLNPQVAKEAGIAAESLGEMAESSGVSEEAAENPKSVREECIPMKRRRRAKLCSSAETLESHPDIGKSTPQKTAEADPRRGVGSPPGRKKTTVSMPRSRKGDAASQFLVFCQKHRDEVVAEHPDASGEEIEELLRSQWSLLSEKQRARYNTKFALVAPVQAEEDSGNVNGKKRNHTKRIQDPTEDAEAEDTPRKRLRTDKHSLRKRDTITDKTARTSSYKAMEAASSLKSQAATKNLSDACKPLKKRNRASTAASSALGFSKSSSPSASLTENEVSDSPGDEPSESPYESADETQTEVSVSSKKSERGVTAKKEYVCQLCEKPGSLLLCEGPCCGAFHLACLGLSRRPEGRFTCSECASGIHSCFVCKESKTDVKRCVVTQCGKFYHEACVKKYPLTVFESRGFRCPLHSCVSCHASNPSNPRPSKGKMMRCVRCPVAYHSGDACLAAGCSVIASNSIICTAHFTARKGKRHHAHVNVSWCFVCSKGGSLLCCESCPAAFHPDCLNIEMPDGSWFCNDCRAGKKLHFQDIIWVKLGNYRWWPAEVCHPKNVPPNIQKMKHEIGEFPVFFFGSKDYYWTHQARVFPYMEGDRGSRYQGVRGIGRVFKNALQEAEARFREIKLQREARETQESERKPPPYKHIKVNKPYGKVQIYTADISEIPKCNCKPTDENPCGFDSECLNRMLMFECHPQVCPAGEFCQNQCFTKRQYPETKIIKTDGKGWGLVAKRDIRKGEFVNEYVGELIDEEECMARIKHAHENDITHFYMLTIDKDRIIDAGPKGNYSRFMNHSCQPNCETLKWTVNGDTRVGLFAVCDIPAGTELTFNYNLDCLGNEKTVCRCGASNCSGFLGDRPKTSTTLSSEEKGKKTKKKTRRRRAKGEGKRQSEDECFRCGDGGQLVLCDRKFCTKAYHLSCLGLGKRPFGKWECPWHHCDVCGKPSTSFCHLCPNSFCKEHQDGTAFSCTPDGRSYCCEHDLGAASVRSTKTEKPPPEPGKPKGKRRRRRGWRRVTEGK
- Type: biochemical
The source made the active and inactive calls.

Entry CCN1CCC(CNCc2cn(-c3ccc(OC)cc3)nc2-c2ccccc2Cl)C1 (configuration not stated) : AC50 on Histone-lysine N-methyltransferase NSD2 (Homo sapiens, UniProt O96028) = > 20 µM (inactive)

Entry CCc1ccc2cccc3c2c1N=CN3C : AC50 on Histone-lysine N-methyltransferase NSD2 (Homo sapiens, UniProt O96028) = 7.21 µM (active)

Entry CCCN(CCC)CCCNC(=O)c1cn(CC)c2ccc(S(=O)(=O)N3CCc4ccccc4C3)cc2c1=O : AC50 on Histone-lysine N-methyltransferase NSD2 (Homo sapiens, UniProt O96028) = > 20 µM (inactive)

Entry Cc1nc2c(=O)[nH]c(=S)[nH]c2nc1O : AC50 on Histone-lysine N-methyltransferase NSD2 (Homo sapiens, UniProt O96028) = 16.2 µM (active)

Entry O=C1/C(=N\c2cccc(O)c2)C(N2CCCCC2)=C(O)c2ccccc21 : AC50 on Histone-lysine N-methyltransferase NSD2 (Homo sapiens, UniProt O96028) = 8.12 µM (active)

Entry CC(=O)C(C(C)=O)C1(O)C(=O)c2ccccc2C1=O : AC50 on Histone-lysine N-methyltransferase NSD2 (Homo sapiens, UniProt O96028) = 5.35 µM (active)

Entry COC(=O)c1cccc(-c2ccc(C(c3c(C)n[nH]c3O)c3c(C)n[nH]c3O)o2)c1 : AC50 on Histone-lysine N-methyltransferase NSD2 (Homo sapiens, UniProt O96028) = > 20 µM (inactive)

----------
- experimental.system: Replicative DNA helicase DnaB (Mycobacterium tuberculosis, UniProt P9WMR3)
- Sequence (P9WMR3 1-399, added parts left off): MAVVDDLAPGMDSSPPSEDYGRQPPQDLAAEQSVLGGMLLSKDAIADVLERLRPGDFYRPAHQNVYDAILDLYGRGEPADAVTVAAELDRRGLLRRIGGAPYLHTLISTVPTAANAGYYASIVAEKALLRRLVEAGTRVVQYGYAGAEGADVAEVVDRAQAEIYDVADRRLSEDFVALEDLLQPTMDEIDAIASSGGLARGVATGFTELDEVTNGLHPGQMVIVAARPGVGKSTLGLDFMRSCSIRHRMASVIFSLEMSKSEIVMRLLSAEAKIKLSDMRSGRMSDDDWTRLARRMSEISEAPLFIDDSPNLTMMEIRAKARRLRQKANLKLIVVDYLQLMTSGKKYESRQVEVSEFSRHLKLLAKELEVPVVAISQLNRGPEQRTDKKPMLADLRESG
- method.notes: DnaB intein splicing inhibitors, dose response, biochemical, cell-free fluorescence (AID 449749)
- Type: functional
The source made the active and inactive calls.
Your response should consist of one outcome taken from active, inactive

Look over these answered cases.
CNC(=O)/C(C#N)=C/c1c(N(Cc2ccccc2)Cc2ccccc2)nc2c(C)cccn2c1=O ... inactive
CN1N=C(C(C)(C)C)CC1=O ... active
CCOC(=O)Cn1cc(/C=N/NC(=O)CC#N)c2ccccc21 ... active
O=C1CC/[N+](=C\c2ccccc2)[N-]1 ... active
Cc1cccc(N(Cc2ccccc2)C(=O)CCl)c1 ... active
CCCCOc1ccc(C2C3CN(C(=O)OCC)CC=C3C(C#N)=C(N)C2(C#N)C#N)cc1OC (stereo unspecified) ... inactive
Cc1c(OCC(=O)Nc2cccnc2)ccc2c3c(c(=O)oc12)CCC3 ... active
Cc1[nH]c2ccc(F)cc2c1CCN(Cc1cccnc1)C(S)=Nc1ccc(F)cc1 ... active
CCCCCCN(C(=O)CCl)c1ccccc1 ... active
COC(=O)Cc1n[nH]c2c1C(c1c[nH]c3ccccc13)C(C#N)=C(N)O2 (stereo unspecified) ... inactive

# next compound below
For COC(=O)c1cccc(-c2ccc(C(c3c(C)n[nH]c3O)c3c(C)n[nH]c3O)o2)c1 , what call appears in the results of this test?
active

----------
- experimental.system: Leucine aminopeptidase (Plasmodium falciparum 3D7, UniProt Q8IL11)
- Sequence (Q8IL11 whole entry): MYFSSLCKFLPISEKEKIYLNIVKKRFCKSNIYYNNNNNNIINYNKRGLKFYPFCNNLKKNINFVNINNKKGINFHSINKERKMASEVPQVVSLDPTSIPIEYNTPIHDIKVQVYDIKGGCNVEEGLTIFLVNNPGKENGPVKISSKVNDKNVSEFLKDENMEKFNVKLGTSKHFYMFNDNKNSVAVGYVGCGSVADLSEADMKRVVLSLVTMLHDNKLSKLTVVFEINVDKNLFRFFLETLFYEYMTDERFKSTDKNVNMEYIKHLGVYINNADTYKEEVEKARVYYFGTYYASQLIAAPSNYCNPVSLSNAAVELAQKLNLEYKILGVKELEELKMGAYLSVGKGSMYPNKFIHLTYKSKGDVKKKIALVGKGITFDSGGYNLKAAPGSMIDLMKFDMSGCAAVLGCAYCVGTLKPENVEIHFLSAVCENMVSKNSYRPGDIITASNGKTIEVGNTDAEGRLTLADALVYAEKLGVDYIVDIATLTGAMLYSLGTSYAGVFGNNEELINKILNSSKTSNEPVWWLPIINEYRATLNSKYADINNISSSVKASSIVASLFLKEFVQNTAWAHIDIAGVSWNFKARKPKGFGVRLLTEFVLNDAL
- method.notes: P. falciparum M17LAP inhibitors, primary screen, biochemical, fluorogenic H-Leu-NHMec substrate, 1536-well (AID 1619)
- Format: functional
Activity calls are given as the source filed them.
IC50: recorded values

Sc1nc2cc(Cl)ccc2s1 ... 14.8 µM (active)

Now, please, on to the next molecule.
Entry O=C(CN1C(=O)C2CC=CCC2C1=O)NCC1COc2ccccc2O1 (configuration not stated) : IC50 on Leucine aminopeptidase (Plasmodium falciparum 3D7, UniProt Q8IL11) = 8.66 µM (active)

----------
- experimental.system: Genome polyprotein (dengue virus type 2)
- Sequence (P29990 2492-3391 limits assumed): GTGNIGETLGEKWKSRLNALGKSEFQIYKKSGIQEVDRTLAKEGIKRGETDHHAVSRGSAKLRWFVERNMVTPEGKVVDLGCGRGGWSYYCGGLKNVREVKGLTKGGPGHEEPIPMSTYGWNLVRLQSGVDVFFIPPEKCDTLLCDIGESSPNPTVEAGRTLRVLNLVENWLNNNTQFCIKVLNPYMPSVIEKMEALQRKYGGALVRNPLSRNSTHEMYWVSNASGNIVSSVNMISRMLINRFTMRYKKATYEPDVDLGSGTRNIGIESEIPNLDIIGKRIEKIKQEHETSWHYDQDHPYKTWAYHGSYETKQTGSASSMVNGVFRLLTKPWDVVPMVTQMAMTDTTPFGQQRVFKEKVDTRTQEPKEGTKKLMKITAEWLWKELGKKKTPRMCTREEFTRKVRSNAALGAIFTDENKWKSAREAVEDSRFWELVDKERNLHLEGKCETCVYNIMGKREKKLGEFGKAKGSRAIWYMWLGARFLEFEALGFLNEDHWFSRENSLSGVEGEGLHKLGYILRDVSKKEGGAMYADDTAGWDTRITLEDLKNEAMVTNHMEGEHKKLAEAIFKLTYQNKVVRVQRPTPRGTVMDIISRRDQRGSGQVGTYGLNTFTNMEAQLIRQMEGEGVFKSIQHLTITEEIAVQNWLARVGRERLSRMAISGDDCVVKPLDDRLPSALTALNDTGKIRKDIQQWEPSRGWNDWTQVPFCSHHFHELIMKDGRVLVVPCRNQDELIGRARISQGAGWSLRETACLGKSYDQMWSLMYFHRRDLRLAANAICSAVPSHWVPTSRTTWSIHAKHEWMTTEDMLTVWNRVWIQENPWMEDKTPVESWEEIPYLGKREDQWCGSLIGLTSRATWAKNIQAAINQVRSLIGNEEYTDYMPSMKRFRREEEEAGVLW
- method.notes: Dengue-2 NS5 methyltransferase inhibitors, primary screen, biochemical, confirmation dose response (AID 588689)
- Format: functional
The source made the active and inactive calls.
IC50: recorded values

// worked examples, IC50 included
O=C(O)c1ccc2c(c1)C(=O)/C(=C/c1ccccc1)C2=O ... 12.2 µM (active)
CCOc1ccc(C(c2c(O)n(C)c(SC)nc2=O)c2c(O)n(C)c(SC)nc2=O)cc1 ... 43 µM (active)
CSc1nc(O)c(C(c2ccc(O)cc2)c2c(O)nc(SC)nc2O)c(O)n1 ... 46.7 µM (active)
C=CCOC(=O)C1=C(C)N=c2s/c(=C3\C(=O)N(CC(=O)O)c4ccccc43)c(=O)n2C1c1ccc(OC)cc1 (centres undefined) ... 59.4 µM (active)
O=c1ccc2[n+]([O-])c3ccc(O)cc3oc-2c1 ... 1.61 µM (active)
c1coc(-c2nc3nc4ccccc4n3nc2-c2ccco2)c1 ... 99.3 µM (active)
O=C(O)/C=C/C(=O)c1ccc2c(c1)CCc1ccccc1-2 ... 22.9 µM (active)
CCOC(=O)C1=C(Cc2ccc(F)cc2)C(=O)c2ccccc2C1=O ... 86.4 µM (active)

Now, please, on to the next molecule.
In plain terms, Cc1[nH]n(-c2ccccc2)c(=O)c1N=Nc1ccccc1C(=O)O has a documented IC50 of 58 µM (active)
